assay protocol: yeast display, Sf9 membrane polyspecificity reagent, FACS + sequencing; frameworks hold sequencing errors
value type: polyreactivity (PSR sort gate)

INSERT INTO assay_data (item_sequence, result) VALUES
  ('QVQLVESGGGLVQAGGSLRLSCAASGRTFKDYAMGWYRQAPGKERELVAAISWSGGDTYYADSVKGRFTISRDNAKNTVYLQMNSLKPEDTAVYYCNADPSGVFFYSLEFDYWGQGTQVTVSS', 'low polyreactivity'),
  ('QVQLAESGGCLVQAGGTLRLSCAASGSTSAKNVMGWYRQPPGKERELVAAISRSGGRTYYADSVKGRFTISRDNAKNTVFLQMNSLKPEVSAVYYCANDYGGYYSRYDYWGQGTQVTVSS', 'high polyreactivity'),
  ('QVQLVESGGGLVQAGGSLRLSCASSGFTFGWYDMGWYRQAPGKERELVASISWSGSSTYYADSVKGRFTISRDNAKNTVYLQLNSLKPEDTAVYYCNAVSVDYVNWYWYDYWGQGTQVTVSS', 'high polyreactivity'),
  ('QVQLVESGGGLVQAGGSLRLSCAASGSTFVLYAMGWYRQAPGKERELVAAITKRGGNTYYADSVKGRFTISRDNAKNTVYLQMNSLKPEDTAVYYCAADHVRSPFDSWGQGTQVTVSS', 'low polyreactivity');

For the next question, use this sequence.
What does the data say about its polyreactivity (PSR sort gate)? Entry: QVQLVESGGGVVQARGSRRLSCAASGRSYANAMGWYRQAPGKERELVAAITKNGGGTYYADSVKGRFTISRDNAKNTVYLQMNSLKPEDTAVYYCAASYSRWYYTAKQQEFDYWGQGTQVTVSS
high polyreactivity
